Cited source: PubChem BioAssay (NCI)

Tested on: SK-MEL-28 melanoma
assayOverview: NCI tumour cell line growth inhibition, 48 h

| molecule | resultModifier | TGI / µM |
| --- | --- | --- |
| Cc1ccccc1N/C(=C(/C(Cl)=C(Cl)Cl)[N+](=O)[O-])n1nnc2ccccc21 | = | 30.9 |
| O=C1NC(=NCCc2cccc(Cl)c2)S/C1=C\c1ccc2ncccc2c1 | > | 25 |
| S=c1[nH]c(=S)c2nnn(-c3ccccc3)c2[nH]1 | > | 100 |
| CCN1CCC(O)(/C=C/c2ccc(C)cc2)C(C(=O)/C=C/c2ccc(C)cc2)C1 (stereo not given) | = | 14.8 |
| O=Cc1ccc2c(c1-c1c(C=O)ccc3c1OCO3)OCO2 | > | 100 |
